- condition_context: 313.15 K; 35000 kPa; Liquid
endpoint_label: mass density (kg/m3)
Quick note: give the figure in kg/m3, leave out the unit.

Solved entries:
| molecule | endpoint_label | units | measured |
| --- | --- | --- | --- |
| CCCCCCCCCCCCCC[P+](CCCCCC)(CCCCCC)CCCCCC.O=S(=O)([N-]S(=O)(=O)C(F)(F)F)C(F)(F)F | mass density | kg/m3 | 1076.2 |
| CCCCCCCCCCCCCC[P+](CCCCCC)(CCCCCC)CCCCCC.[Br-] [tetradecyltrihexylphosphonium bromide] | mass density | kg/m3 | 963.2 |
| CCCCCCCCCCCCCC[P+](CCCCCC)(CCCCCC)CCCCCC.CS(=O)(=O)[O-] [trihexyltetradecylphosphonium methanesulfonate] | mass density | kg/m3 | 938.4 |
| CCCCCCCCCCCCCC[P+](CCCCCC)(CCCCCC)CCCCCC.[Cl-] [trihexyl(tetradecyl)phosphonium chloride] | mass density | kg/m3 | 897.7 |

# context switch: different molecule, same mass density
Given CCCCCCCCCCCCCC[P+](CCCCCC)(CCCCCC)CCCCCC.N#C[N-]C#N [tetradecyl(trihexyl)phosphonium dicyanamide] , state its recorded mass density.
906.5
